tested.on: human orexin type 2 receptor (hOX2R) (Homo sapiens, UniProt O43614)
Construct: expressed in transfected cells
run.description: Measurement of orexin type 2 receptor agonist activity (Fluo-4 calcium fluorescence, CHO cells forcibly expressing human OX2 receptor)
Format: cell-based
experimental.conditions: test compound 3 μM, DMSO = 0%, orexin A (human) 10 nM = 100%
readout: OX2R agonist activity (3 μM, %)

compound	OX2R agonist activity (3 μM, %)
Cc1ccc(C)c(C(=O)N2CC[C@H](Oc3cccc(CS(=O)(=O)N4CCCC4c4ccccn4)c3)C2)c1 (stereo partly drawn)	29

I. CO[C@@H]1CN(C(=O)c2cc(C)ccc2C)C[C@H]1Oc1cccc(CS(=O)(=O)N(C)c2ccncc2)c1 (relative stereo)
II. CO[C@@H]1CN(C(=O)c2cc(C)ccc2C)C[C@H]1Oc1cccc(NS(=O)(=O)N2CCOCC2)c1 (relative stereo)
Response body: label of entry with the larger OX2R agonist activity (3 μM, %); valid values I , II . // respond with label for picked entry
II

###

tested.on: human orexin type 2 receptor (hOX2R) (Homo sapiens)
Construct: expressed in transfected cells
run.description: Measurement of orexin type 2 receptor agonist activity (Fluo-4 calcium fluorescence, CHO cells forcibly expressing human OX2 receptor)
Type: cell-based
experimental.conditions: test compound 3 μM, DMSO = 0%, orexin A (human) 10 nM = 100%
readout: OX2R agonist activity (3 μM, %)

compound	tested.on	OX2R agonist activity (3 μM, %)
CCc1cccc(C)c1C(=O)N1C[C@@H](OC)[C@H](Oc2cccc(CS(=O)(=O)N(CC)C3CCOCC3)c2)C1	human orexin type 2 receptor (hOX2R) (Homo sapiens)	83

I. CO[C@@H]1CN(C(=O)c2cc(C)ccc2C)C[C@H]1Oc1cccc(NS(=O)(=O)N(C)C2COC2)c1 (relative stereo)
II. CO[C@@H]1CN(C(=O)c2cc(C)ccc2C)C[C@H]1Oc1cccc(CS(=O)(=O)N2CCCC2)c1 (relative stereo)
Response body: label of entry with the larger OX2R agonist activity (3 μM, %); valid values I , II . // respond with label for picked entry
I

###

tested.on: human orexin type 2 receptor (hOX2R) (Homo sapiens)
Construct: expressed in transfected cells
run.description: Measurement of orexin type 2 receptor agonist activity (Fluo-4 calcium fluorescence, CHO cells forcibly expressing human OX2 receptor)
Type: cell-based
experimental.conditions: test compound 3 μM, DMSO = 0%, orexin A (human) 10 nM = 100%
readout: OX2R agonist activity (3 μM, %)

molecule	measurement.units	OX2R agonist activity (3 μM, %)
CO[C@@H]1CN(C(=O)c2cc(C)ccc2C)C[C@H]1Oc1cccc(NS(=O)(=O)N(C)C2CCOCC2)c1 (relative stereo) [Example 47]	%	106
CO[C@@H]1CN(C(=O)c2c(C)cccc2C2CC2)C[C@H]1Oc1cccc(CS(=O)(=O)N(C)C2CCOCC2)c1 (relative stereo) [Example 160]	%	111
CO[C@@H]1CN(C(=O)c2cc(C)ccc2C)C[C@H]1Oc1cccc(NS(=O)(=O)N2CCC3(CC3)C2)c1 (relative stereo) [Example 69]	%	82

###

tested.on: human orexin type 2 receptor (hOX2R) (Homo sapiens)
Construct: expressed in transfected cells
Sequence (O43614 1-444): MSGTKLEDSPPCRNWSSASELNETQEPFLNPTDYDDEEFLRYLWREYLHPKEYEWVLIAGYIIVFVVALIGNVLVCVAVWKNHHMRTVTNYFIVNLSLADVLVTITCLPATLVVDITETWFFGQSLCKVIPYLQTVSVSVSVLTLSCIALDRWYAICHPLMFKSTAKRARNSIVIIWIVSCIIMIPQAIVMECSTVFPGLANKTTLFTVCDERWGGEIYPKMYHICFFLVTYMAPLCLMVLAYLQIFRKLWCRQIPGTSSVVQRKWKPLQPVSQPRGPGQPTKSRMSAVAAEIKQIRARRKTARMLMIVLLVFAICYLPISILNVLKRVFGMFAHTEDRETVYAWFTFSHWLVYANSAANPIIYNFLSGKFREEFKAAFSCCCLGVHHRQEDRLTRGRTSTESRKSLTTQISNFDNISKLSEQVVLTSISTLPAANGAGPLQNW
run.description: Measurement of orexin type 2 receptor agonist activity (Fluo-4 calcium fluorescence, CHO cells forcibly expressing human OX2 receptor)
Assay type: cell-based
experimental.conditions: test compound 3 μM, DMSO = 0%, orexin A (human) 10 nM = 100%
readout: OX2R agonist activity (3 μM, %)

compound	measurement.units	OX2R agonist activity (3 μM, %)
CO[C@@H]1CN(C(=O)c2cc(C)ccc2C)C[C@H]1Oc1cccc(C(F)S(=O)(=O)N2CCCC2c2ccccn2)c1 (relative stereo) [Example 110]	%	67
CO[C@@H]1CN(C(=O)c2cc(C)ccc2C)C[C@H]1Oc1cccc(CS(=O)(=O)N2CCC23CCN(C(=O)OC(C)(C)C)C3)c1 (relative stereo) [Example 33]	%	105
COc1cccc(C)c1C(=O)N1CC(OC)C(Oc2cccc(CS(=O)(=O)N3CCCC3c3ccc(C)nc3C)c2)C1 (stereo not drawn) [Example 124]	%	99
CO[C@@H]1CN(C(=O)c2cc(C)ccc2C)C[C@H]1Oc1cccc(NS(=O)(=O)N2CCC2)c1 (relative stereo) [Example 48]	%	62
CO[C@@H]1CN(C(=O)c2cc(C)ccc2C)C[C@H]1Oc1cccc(NS(=O)(=O)N(C)C2CC2)c1 (relative stereo) [Example 44]	%	73
COC1CN(C(=O)c2cc(C)ccc2C)CC1Oc1cccc(NS(=O)(=O)N2CC[C@H]3CCN(C)C[C@@H]32)c1 (relative stereo) [Example 76]	%	82

###

tested.on: human orexin type 2 receptor (hOX2R) (Homo sapiens, UniProt O43614)
Construct: expressed in transfected cells
run.description: Measurement of orexin type 2 receptor agonist activity (Fluo-4 calcium fluorescence, CHO cells forcibly expressing human OX2 receptor)
Assay type: cell-based
experimental.conditions: test compound 3 μM, DMSO = 0%, orexin A (human) 10 nM = 100%
readout: OX2R agonist activity (3 μM, %)

In the examples that follow, each entry is paired with its recorded OX2R agonist activity (3 μM, %).
compound	readout	data.value
CO[C@@H]1CN(C(=O)c2cc(C)ccc2C)C[C@H]1Oc1cccc(NS(=O)(=O)N2CCCC2)c1 (relative stereo) [Example 22]	OX2R agonist activity (3 μM, %)	65
CCc1cccc(C)c1C(=O)N1CC[C@H](Oc2cccc(CS(=O)(=O)N(C)C3CCOCC3)c2)C1 [Example 159]	OX2R agonist activity (3 μM, %)	89
CO[C@@H]1CN(C(=O)c2cc(C)ccc2C)C[C@H]1Oc1cccc(CS(=O)(=O)N2CCC23COC3)c1 (relative stereo) [Example 34]	OX2R agonist activity (3 μM, %)	87
CO[C@@H]1CN(C(=O)c2cc(C)ccc2C)C[C@H]1Oc1cccc(NS(=O)(=O)N2CCC3(COC3)C2)c1 (relative stereo) [Example 70]	OX2R agonist activity (3 μM, %)	90

A. CO[C@@H]1CN(C(=O)c2cc(C)ccc2C)C[C@H]1Oc1cccc(CS(=O)(=O)N2CCC23CN(C(=O)OC(C)(C)C)C3)c1 (relative stereo) [Example 32]
B. CO[C@@H]1CN(C(=O)c2cc(C)ccc2C)C[C@H]1Oc1cccc(CS(=O)(=O)N2CCCC2c2cnccn2)c1 (relative stereo) [Example 39]
Lower value for measured OX2R agonist activity (3 μM, %)? Options: A , B // respond with label for picked entry
B
(B: 76%, A: 109%)

###

tested.on: human orexin type 2 receptor (hOX2R) (Homo sapiens)
Construct: expressed in transfected cells
run.description: Measurement of orexin type 2 receptor agonist activity (Fluo-4 calcium fluorescence, CHO cells forcibly expressing human OX2 receptor)
Format: cell-based
experimental.conditions: test compound 3 μM, DMSO = 0%, orexin A (human) 10 nM = 100%
readout: OX2R agonist activity (3 μM, %)

compound	tested.on	measurement.units	data.value
CO[C@@H]1CN(C(=O)c2cc(C)ccc2C)C[C@H]1Oc1cccc(C(C)S(=O)(=O)N(C)C2CCOCC2)c1 (relative stereo)	human orexin type 2 receptor (hOX2R) (Homo sapiens)	%	92

1. CO[C@@H]1CN(C(=O)c2cc(C)ccc2C)C[C@H]1Oc1cccc(CS(=O)(=O)N2CCOCC2CO)c1 (relative stereo)
2. COC1CN(C(=O)c2cc(C)ccc2C)CC1Oc1cccc(NS(=O)(=O)N2C[C@@H]3C[C@H]3C2)c1 (relative stereo)
Response body: label of entry with the larger OX2R agonist activity (3 μM, %); valid values 1 , 2 . // respond with label for picked entry
2

###

tested.on: human orexin type 2 receptor (hOX2R) (Homo sapiens, UniProt O43614)
Construct: expressed in transfected cells
run.description: Measurement of orexin type 2 receptor agonist activity (Fluo-4 calcium fluorescence, CHO cells forcibly expressing human OX2 receptor)
Assay type: cell-based
experimental.conditions: test compound 3 μM, DMSO = 0%, orexin A (human) 10 nM = 100%
Text: Experimental Example 1: Obtainment of Cell Stably Expressing Human Orexin Type 2 Receptor (hOX2R) To obtain a cell clone stably expressing human orexin type 2 receptor, human orexin type 2 receptor cDNA was inserted into pcDNA3.1(+) plasmid vector (Invitrogen), and a plasmid DNA for expression of human orexin type 2 receptor (pcDNA3.1(+)/hOX2R) was cloned. […]
readout: OX2R agonist activity (3 μM, %)

In the examples that follow, each entry is paired with its recorded OX2R agonist activity (3 μM, %).
compound	readout	data.value
CO[C@@H]1CN(C(=O)c2c(C)cccc2C2CC2)C[C@H]1Oc1cccc(OS(=O)(=O)N2CCOCC2)c1 (relative stereo)	OX2R agonist activity (3 μM, %)	41
CO[C@@H]1CN(C(=O)c2cc(C)ccc2C)C[C@H]1Oc1cccc(NS(=O)(=O)N2CCCC2C)c1 (relative stereo)	OX2R agonist activity (3 μM, %)	60
COc1ccccc1OC(=O)N1C[C@@H](OC)[C@H](Oc2cccc(NS(=O)(=O)N3CC4CC4C3)c2)C1 (stereo partly drawn)	OX2R agonist activity (3 μM, %)	83
CCc1cccc(C)c1C(=O)N1C[C@@H](OC)[C@H](Oc2cccc(CS(=O)(=O)N(C)[C@@H]3C[C@H]4CC[C@@H](C3)O4)c2)C1	OX2R agonist activity (3 μM, %)	110
COc1ccccc1C1CCCN1S(=O)(=O)Nc1cccc(O[C@@H]2CN(C(=O)c3cc(C)ccc3C)C[C@H]2OC)c1 (relative stereo)	OX2R agonist activity (3 μM, %)	72
CO[C@@H]1CN(C(=O)c2cc(C)ccc2C)C[C@H]1Oc1cccc(NS(=O)(=O)N2CCOC(C)C2)c1 (relative stereo)	OX2R agonist activity (3 μM, %)	85
CO[C@@H]1CN(C(=O)c2cc(C)ccc2C)C[C@H]1Oc1cccc(NS(=O)(=O)N(C)Cc2cccnc2)c1 (relative stereo)	OX2R agonist activity (3 μM, %)	87
CO[C@@H]1CN(C(=O)c2c(C)cccc2C)C[C@H]1Oc1cccc(NS(=O)(=O)N2CC3CC3C2)c1 (stereo partly drawn)	OX2R agonist activity (3 μM, %)	107

I. CO[C@@H]1CN(C(=O)c2cc(C)ccc2C)C[C@H]1Oc1cccc(CS(=O)(=O)N2CCC23CN(C(C)=O)C3)c1 (relative stereo)
II. CO[C@@H]1CN(C(=O)Oc2ccccc2C)C[C@H]1Oc1cccc(NS(=O)(=O)N2CC3CC3C2)c1 (stereo partly drawn)
Lower value for measured OX2R agonist activity (3 μM, %)? Options: I , II // respond with label for picked entry
II
(II: 38%, I: 96%)

I. CO[C@@H]1CN(C(=O)c2cc(C)ccc2C)C[C@H]1Oc1cccc(CS(=O)(=O)N2CCCC2c2ccccc2Cl)c1 (relative stereo)
II. CO[C@@H]1CN(C(=O)C2(c3ccccc3)CCC2)C[C@H]1Oc1cccc(CS(=O)(=O)N(C)C2CCOCC2)c1 (relative stereo)
III. COC(=O)C1COCCN1S(=O)(=O)Cc1cccc(O[C@@H]2CN(C(=O)c3cc(C)ccc3C)C[C@H]2OC)c1 (relative stereo)
Order the records so the highest OX2R agonist activity (3 μM, %) appears first and the lowest last. // respond by listing labels in the order requested
I, III, II
